Molecular target: cGMP-specific 3',5'-cyclic phosphodiesterase (Homo sapiens, UniProt O76074)
Assay: Inhibition of recombinant full lenght human PDE5A using fluorescent labeled cGMP as substrate after 15 mins by IMAP assay

compound	Ki [nM]
CN1C(=O)c2c(nn(Cc3ccc(C(F)(F)F)cc3)c2Nc2ccccc2)N2C1=N[C@@H]1CCC[C@@H]12	590
CN1C(=O)c2c(nn(Cc3ccc(-c4ccccn4)cc3)c2Nc2ccccc2)N2C1=N[C@@H]1CCC[C@@H]12	600
CN1C(=O)c2c(nn(Cc3ccc(-c4cccc(F)n4)cc3)c2Nc2ccccc2)N2C1=N[C@@H]1CCC[C@@H]12.O=P(O)(O)O [LENRISPODUN PHOSPHATE]	630
CN1C(=O)c2c(nn(Cc3ccc(-c4ccccc4)cc3)c2Nc2ccccc2)N2C1=N[C@@H]1CCC[C@@H]12	1600
CN1C(=O)c2c(nn(Cc3ccc(C(F)(F)F)nc3)c2Nc2ccccc2)N2C1=N[C@@H]1CCC[C@@H]12	1200

----------
Let's look at some compounds and their measured bioavailability.
Test: Oral bioavailability in Sprague-Dawley rat at 9.75 mg/kg administered through gavage
Type: ADME, organism-based
Conditions: in vivo
readout_name: bioavailability (%)

compound	units_text	measured_number
CN1C(=O)c2c(nn(Cc3ccc(C(F)(F)F)cc3)c2Nc2ccc(F)cc2)N2C1=N[C@@H]1CCC[C@@H]12	%	6
CN1C(=O)c2c(nn(Cc3ccc(-c4ccccn4)cc3)c2Nc2ccccc2)N2C1=N[C@@H]1CCC[C@@H]12	%	16
CN1C(=O)c2c(nn(Cc3ccc(-c4cccc(F)n4)cc3)c2Nc2ccccc2)N2C1=N[C@@H]1CCC[C@@H]12.O=P(O)(O)O [LENRISPODUN PHOSPHATE]	%	28
CN1C(=O)c2c(nn(Cc3ccc(C(F)(F)F)cc3)c2Nc2ccccc2)N2C1=N[C@@H]1CCC[C@@H]12	%	8

----------
Ratio Ki values by entry
Test: Selectivity ratio of Ki for recombinant full lenght human PDE4A to bovine brain PDE1
readout_name: Ratio Ki

compound	measured_number
CN1C(=O)c2c(nn(Cc3ccc(-c4cccc(F)n4)cc3)c2NC2CCCCC2)N2C1=N[C@@H]1CCC[C@@H]12	571
O=C1NC2=N[C@@H]3CCC[C@@H]3N2c2nn(Cc3ccc(C(F)(F)F)cc3)c(Nc3ccccc3)c21	2
CN1C(=O)c2c(nn(Cc3ccc(-c4ccccc4)cc3)c2Nc2ccccc2)N2CC(C3CCOC3)N=C12 (stereo unspecified)	857
CC(C)Nc1c2c(nn1Cc1ccc(-c3cccc(F)n3)cc1)N1C(=N[C@@H]3CCC[C@@H]31)N(C)C2=O	458
CCCNc1c2c(nn1Cc1ccc(-c3cccc(F)n3)cc1)N1C(=N[C@@H]3CCC[C@@H]31)N(C)C2=O	413
CN1C(=O)c2c(nn(Cc3ccc(-c4cccc(F)n4)cc3)c2Sc2ccccc2)N2C1=N[C@@H]1CCC[C@@H]12	179
CN1C(=O)c2c(nn(Cc3ccc(-c4cccc(F)n4)cc3)c2Cc2ccccc2)N2C1=N[C@@H]1CCC[C@@H]12	350
CN1C(=O)c2c(nn(Cc3ccc(-c4ccc(F)cn4)cc3)c2Nc2ccccc2)N2C1=N[C@@H]1CCC[C@@H]12	6760
CN1C(=O)c2c(nn(Cc3ccc(C4CCCN4C)cc3)c2Nc2ccccc2)N2C1=N[C@@H]1CCC[C@@H]12 (stereo partly specified)	1150
CN1C(=O)c2c(Nc3ccccc3)nn(CC3CCCC3)c2N2C1=N[C@@H]1CCC[C@@H]12	2.6
CCCC(C)Nc1c2c(nn1Cc1ccc(-c3cccc(F)n3)cc1)N1C(=N[C@@H]3CCC[C@@H]31)N(C)C2=O (stereo partly specified)	2000
CC(C)[C@@H]1CN2C(=N1)N(C)C(=O)c1c2nn(Cc2ccc(-c3ccccc3)cc2)c1Nc1ccccc1	652
CN1C(=O)c2c(nn(Cc3ccc(S(N)(=O)=O)cc3)c2Nc2ccccc2)N2C1=N[C@@H]1CCC[C@@H]12	857
CN1C(=O)c2c(nn(Cc3ccc(-c4ccccc4)cc3)c2Nc2ccccc2)N2C[C@@H](CO)N=C12	683

----------
Experiment: AUClast in C57BL/6 mouse plasma at 10 mg/kg administered through oral gavage
Type: ADME, organism-based
Design: dose 10 mg/kg, time 0 - last, route oral
readout_name: log10 AUC(0-t) (log10 of the value in ng·h/mL)

compound	readout_name	measured_number
CN1C(=O)c2c(nn(Cc3ccc(-c4cccc(F)n4)cc3)c2Oc2ccccc2)N2C1=N[C@@H]1CCC[C@@H]12	log10 AUC(0-t)	2.32
CN1C(=O)c2c(nn(Cc3ccc(C(F)(F)F)cc3)c2Nc2ccc(F)cc2)N2C1=N[C@@H]1CCC[C@@H]12	log10 AUC(0-t)	1.38
CN1C(=O)c2c(nn(Cc3ccc(-c4cccc(F)n4)cc3)c2Oc2ccc(F)cc2)N2C1=N[C@@H]1CCC[C@@H]12	log10 AUC(0-t)	2.08
CN1C(=O)c2c(nn(Cc3ccc(-c4cccc(F)n4)cc3)c2Cc2ccc(F)cc2)N2C1=N[C@@H]1CCC[C@@H]12	log10 AUC(0-t)	1.84
CN1C(=O)c2c(nn(Cc3ccc(-c4cccc(F)n4)cc3)c2Sc2ccccc2)N2C1=N[C@@H]1CCC[C@@H]12	log10 AUC(0-t)	2.03
CN1C(=O)c2c(nn(Cc3ccc(-c4cccc(F)n4)cc3)c2Nc2ccccc2)N2C1=N[C@@H]1CCC[C@@H]12.O=P(O)(O)O [LENRISPODUN PHOSPHATE]	log10 AUC(0-t)	2.92
CN1C(=O)c2c(nn(Cc3ccc(C(F)(F)F)cc3)c2Nc2ccccc2)N2C1=N[C@@H]1CCC[C@@H]12	log10 AUC(0-t)	2.09

----------
Assay: Lipophilicity, logD of compound at pH 1.7
Format: physicochemical
Conditions: buffer
Attribute: logD

molecule	logD
CN1C(=O)c2c(nn(Cc3ccc(C(F)(F)F)cc3)c2Nc2ccc(F)cc2)N2C1=N[C@@H]1CCC[C@@H]12	1.11
CN1C(=O)c2c(nn(Cc3ccc(-c4cccc(F)n4)cc3)c2Oc2ccc(F)cc2)N2C1=N[C@@H]1CCC[C@@H]12	1.21
CN1C(=O)c2c(nn(Cc3ccc(-c4cccc(F)n4)cc3)c2Cc2ccccc2)N2C1=N[C@@H]1CCC[C@@H]12	1.36
CN1C(=O)c2c(nn(Cc3ccc(-c4ccccn4)cc3)c2Nc2ccccc2)N2C1=N[C@@H]1CCC[C@@H]12	-0.58
CN1C(=O)c2c(nn(Cc3ccc(C(F)(F)F)cc3)c2Nc2ccccc2)N2C1=N[C@@H]1CCC[C@@H]12	1.16
CN1C(=O)c2c(nn(Cc3ccc(-c4cccc(F)n4)cc3)c2Cc2ccc(F)cc2)N2C1=N[C@@H]1CCC[C@@H]12	1.42
CN1C(=O)c2c(nn(Cc3ccc(-c4cccc(F)n4)cc3)c2Nc2ccccc2)N2C1=N[C@@H]1CCC[C@@H]12.O=P(O)(O)O [LENRISPODUN PHOSPHATE]	1.27

----------
Experiment: Clearance in Sprague-Dawley rat at 1 mg/kg, iv
Type: ADME, organism-based
Details: in vivo

molecule	units_text	clearance
CN1C(=O)c2c(nn(Cc3ccc(-c4cccc(F)n4)cc3)c2Nc2ccccc2)N2C1=N[C@@H]1CCC[C@@H]12.O=P(O)(O)O [LENRISPODUN PHOSPHATE]	mL/min/kg	55
CN1C(=O)c2c(nn(Cc3ccc(-c4ccccn4)cc3)c2Nc2ccccc2)N2C1=N[C@@H]1CCC[C@@H]12	mL/min/kg	40
CN1C(=O)c2c(nn(Cc3ccc(C(F)(F)F)cc3)c2Nc2ccc(F)cc2)N2C1=N[C@@H]1CCC[C@@H]12	mL/min/kg	57
CN1C(=O)c2c(nn(Cc3ccc(C(F)(F)F)cc3)c2Nc2ccccc2)N2C1=N[C@@H]1CCC[C@@H]12	mL/min/kg	62

----------
CLint scaled overview
Assay: Intrinsic clearance in human liver microsomes
Assay type: ADME
Details: read-out: CLH

compound	units_text	CLint scaled
CN1C(=O)c2c(nn(Cc3ccc(-c4ccc(F)cn4)cc3)c2Nc2ccccc2)N2C1=N[C@@H]1CCC[C@@H]12	mL/min/kg	125
CN1C(=O)c2c(nn(Cc3ccc(-c4cccc(F)n4)cc3)c2Oc2ccc(F)cc2)N2C1=N[C@@H]1CCC[C@@H]12	mL/min/kg	266
CN1C(=O)c2c(nn(Cc3ccc(-c4cccc(F)n4)cc3)c2Cc2ccccc2)N2C1=N[C@@H]1CCC[C@@H]12	mL/min/kg	165
CN1C(=O)c2c(nn(Cc3ccc(-c4cc(F)ccn4)cc3)c2Nc2ccccc2)N2C1=N[C@@H]1CCC[C@@H]12	mL/min/kg	218
CN1C(=O)c2c(nn(Cc3ccc(-c4cccc(F)n4)cc3)c2Nc2ccccc2)N2C1=N[C@@H]1CCC[C@@H]12.O=P(O)(O)O [LENRISPODUN PHOSPHATE]	mL/min/kg	78
CN1C(=O)c2c(nn(Cc3ccc(-c4ccccn4)cc3)c2Nc2ccccc2)N2C1=N[C@H]1CCC[C@H]12	mL/min/kg	72
